The values you see were collected from ChEMBL document CHEMBL1153859.

# assay_explanation: Octanol-phosphate buffer partition coefficient, log D at pH 7.4 by shake-flask method
# Type: physicochemical
Recorded measurements of logD, one per entry
Give the figure by itself; no unit, no explanation.

logD lookup needed for `N#Cc1c(C(=O)NN2CCCCC2)nn(-c2ccc(Cl)cc2Cl)c1-c1ccc(I)cc1` , thanks.
3.9

Same for `N#Cc1c(C(=O)NN2CCOCC2)nn(-c2ccc(Cl)cc2Cl)c1-c1ccc(I)cc1`
3.2

Please do the same for `N#Cc1c(C(=O)NN2CCCCC2)nn(-c2ccc(Cl)cc2Cl)c1-c1ccc(OCF)cc1` as well.
2.9

---

Recorded Ki values (Cannabinoid receptor 1 (Homo sapiens)) are given below.
Enter your answer as a number in nM; do not include the unit.

These recorded examples may help you get a feel for the data.
Can you share its Ki? I mean this compound: `N#Cc1c(C(=O)NN2CCCCC2)nn(-c2ccc(Cl)cc2Cl)c1-c1ccc(I)cc1`
33

And the next one, `CCCCCCC(C)(C)c1cc(O)c2c(c1)OC(C)(C)[C@@H]1CC=C(CO)C[C@@H]21` ?
1.5

The record that follows has no Ki shown yet.
Any idea what its Ki is? The compound is `N#Cc1c(C(=O)NN2CCCCC2)nn(-c2ccc(Cl)cc2Cl)c1-c1ccc(Br)cc1`
14

---

# Lookup of reported logD keyed by entry
# assay_explanation: Octanol-phosphate buffer partition coefficient, log D at pH 7.4 by shake-flask method
# Format: physicochemical
// no unit, no text: just the number

Worked cases, answers included:
Fill in: logD of `N#Cc1c(C(=O)NN2CCOCC2)nn(-c2ccc(Cl)cc2Cl)c1-c1ccc(Br)cc1` is ___
3.1

Would you kindly repeat that for `COc1ccc(-c2c(C#N)c(C(=O)NN3CCCCC3)nn2-c2ccc(F)cc2Br)cc1` ?
2.9

And then `COc1ccc(-c2c(C#N)c(C(=O)NN3CCCCC3)nn2-c2ccc(F)cc2Cl)cc1` , what is it?
2.8

Next: `N#Cc1c(C(=O)NN2CCCCC2)nn(-c2ccc(Cl)cc2Cl)c1-c1ccc(Cl)cc1`
3.5

What do we get for `N#Cc1c(C(=O)NN2CCCCC2)nn(-c2ccc(Cl)cc2Cl)c1-c1ccc(Br)cc1` ?
3.7

Ok, now `COc1ccc(-c2c(C#N)c(C(=O)NN3CCCCC3)nn2-c2ccccc2Br)cc1`
3.4

Moving on to another molecule below.
Give its logD value. Item: `COc1ccc(-c2c(C(N)=O)c(C(=O)NN3CCCCC3)nn2-c2ccccc2Br)cc1`
2.5
